molecular target: CYP2B6 (Homo sapiens, UniProt P20813); assay: Induction of CYP2B6 in cryopreserved human hepatocytes measured after 48 hrs; format: ADME, cell-based
Sequence (P20813 whole entry): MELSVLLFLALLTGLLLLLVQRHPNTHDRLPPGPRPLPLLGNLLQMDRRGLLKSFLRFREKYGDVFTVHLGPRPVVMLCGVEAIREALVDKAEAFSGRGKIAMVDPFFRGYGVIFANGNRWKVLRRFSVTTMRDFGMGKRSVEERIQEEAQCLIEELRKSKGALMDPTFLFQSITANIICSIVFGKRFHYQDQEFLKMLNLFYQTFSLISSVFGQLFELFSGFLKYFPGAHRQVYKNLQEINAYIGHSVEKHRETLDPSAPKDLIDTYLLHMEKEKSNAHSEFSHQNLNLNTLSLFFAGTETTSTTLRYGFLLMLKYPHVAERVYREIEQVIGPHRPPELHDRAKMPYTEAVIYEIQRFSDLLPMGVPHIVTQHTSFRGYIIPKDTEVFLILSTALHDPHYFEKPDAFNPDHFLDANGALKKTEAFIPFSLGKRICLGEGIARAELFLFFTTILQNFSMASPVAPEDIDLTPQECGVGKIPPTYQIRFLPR
ENDPOINT: EC50 at 48 h

Value lookup for EC50 at 48 h; key = "Cc1nnc2sc(C(=O)NCc3ccc(-c4cccnc4F)cc3)c(N)c2c1C"
> 50 µM

---

target: Muscarinic acetylcholine receptor M5 (Rattus norvegicus, UniProt P08911); assay: Activity at rat M5 receptor
Sequence (P08911 whole entry): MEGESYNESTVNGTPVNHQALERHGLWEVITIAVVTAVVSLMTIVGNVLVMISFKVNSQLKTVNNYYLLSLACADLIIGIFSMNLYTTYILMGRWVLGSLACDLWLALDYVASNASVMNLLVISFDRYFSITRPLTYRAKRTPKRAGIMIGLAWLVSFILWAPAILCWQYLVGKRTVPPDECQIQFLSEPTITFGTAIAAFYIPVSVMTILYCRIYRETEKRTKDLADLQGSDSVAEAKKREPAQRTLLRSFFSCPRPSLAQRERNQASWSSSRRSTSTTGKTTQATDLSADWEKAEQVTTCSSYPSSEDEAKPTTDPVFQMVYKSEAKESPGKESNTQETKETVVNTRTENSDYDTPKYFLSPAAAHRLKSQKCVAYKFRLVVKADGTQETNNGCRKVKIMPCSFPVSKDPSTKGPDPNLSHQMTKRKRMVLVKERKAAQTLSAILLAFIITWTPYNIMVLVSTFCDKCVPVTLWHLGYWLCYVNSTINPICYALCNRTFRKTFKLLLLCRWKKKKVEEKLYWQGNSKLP
pEC50: −log10 of the molar value.
ENDPOINT: pEC50

Value lookup for pEC50; key = "Cc1nnc2sc(C(=O)NCc3ccc(-c4cccnc4F)cc3)c(N)c2c1C"
< 4.52
